Target: wildtype Kras / hSOS1 (Homo sapiens)
Construct: made in house; host or cells: E. coli BL21 (DE3)
Sequence (P01116 1-188 isoform P01116-2): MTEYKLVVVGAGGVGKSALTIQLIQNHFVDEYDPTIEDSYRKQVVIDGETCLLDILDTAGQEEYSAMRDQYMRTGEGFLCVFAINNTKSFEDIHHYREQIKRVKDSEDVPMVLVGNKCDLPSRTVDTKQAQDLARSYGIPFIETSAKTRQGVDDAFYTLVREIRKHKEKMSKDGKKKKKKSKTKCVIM
Experiment: HTRF assay, wildtype Kras / SOS1 interaction
Type: binding
Conditions: compound nos. 102-196, general methodology of example 5; read-out: IC50 against wildtype Kras
pIC50: −log10 of the molar value.
// reported pIC50 for each item listed

Example entries begin here.
- molecule: "Nc1nc2c(-c3c(Cl)cc4c(N5CCNCC(F)(F)C5)nc(OCC56CCCN5C[C@H](F)C6)nc4c3F)cccc2s1 (stereo partly drawn)"
  pIC50: "> 6.30"
- molecule: "CN1CCC[C@H]1COc1nc(N2CCNCC(F)(F)C2)c2cc(Cl)c(-c3cccc4ccc(N)nc34)c(F)c2n1"
  pIC50: "< 6.30"
- molecule: "Nc1nc2c(-c3c(Cl)cc4c(N5CCCOCC5)nc(OC[C@@]56CCCN5C[C@H](F)C6)nc4c3F)cccc2o1"
  pIC50: "> 6.30"
- molecule: "Cc1ccc2[nH]nc(N)c2c1-c1c(Cl)cc2c(N3CCNCC(F)(F)C3)nc(OC[C@@H]3CCCN3C)nc2c1F"
  pIC50: "< 6.30"
- molecule: "CN1CCC[C@H]1COc1nc(N2CCNCC(F)(F)C2)c2cc(Cl)c(-c3cccc4sc(O)nc34)c(F)c2n1"
  pIC50: "< 6.30"

Prompt line: Would you mind telling me what pIC50 value was observed for Nc1nc2c(-c3c(Cl)cc4c(N5CCNCC(F)(F)C5)nc(OCCCN5CCOCC5)nc4c3F)cccc2s1 ?
Response line: > 6.30

Prompt line: Would you mind telling me what pIC50 value was observed for CN1C[C@H](F)C[C@H]1COc1nc(N2CCNCC(F)(F)C2)c2cc(Cl)c(-c3cccc4sc(N)nc34)c(F)c2n1 ?
Response line: > 6.30

Prompt line: Would you mind telling me what pIC50 value was observed for Nc1nc2c(-c3c(Cl)cc4c(N5CCCCC(F)(F)C5)nc(OCC56CCCN5CCC6)nc4c3F)cccc2s1 ?
Response line: > 6.30

Prompt line: Would you mind telling me what pIC50 value was observed for Nc1nc2c(-c3c(Cl)cc4c(N5CCOCC(O)C5)nc(OCC56CCCN5C[C@H](F)C6)nc4c3F)ccc(F)c2s1 (stereo partly drawn) ?
Response line: > 6.30

Prompt line: Would you mind telling me what pIC50 value was observed for Nc1nc2c(-c3c(Cl)cc4c(N5CCNCC(F)C5)nc(OC[C@@]56CCCN5C[C@H](F)C6)nc4c3F)ccc(F)c2s1 (stereo partly drawn) ?
Response line: > 6.30

Prompt line: Would you mind telling me what pIC50 value was observed for CN1CCC[C@H]1COc1nc(N2CCCC3(CNC3)C2)c2cc(Cl)c(-c3cccc4sc(N)nc34)c(F)c2n1 ?
Response line: < 6.30

Prompt line: Would you mind telling me what pIC50 value was observed for CN1CCC[C@H]1COc1nc(N2CCSCC(F)(F)C2)c2cc(Cl)c(-c3cccc4sc(N)nc34)c(F)c2n1 ?
Response line: > 6.30

Prompt line: Would you mind telling me what pIC50 value was observed for CN1CCC[C@H]1COc1nc(N2CCCNCC(F)(F)C2)c2cc(Cl)c(-c3cccc4sc(N)nc34)c(F)c2n1 ?
Response line: > 6.30

Prompt line: Would you mind telling me what pIC50 value was observed for Nc1nc2c(-c3c(Cl)cc4c(N5CCNCC(F)(F)C5)nc(Oc5cccnc5C5CC5)nc4c3F)cccc2s1 ?
Response line: < 6.30

Prompt line: Would you mind telling me what pIC50 value was observed for CN1CCC[C@H]1COc1nc(N2CCNCC(F)(F)C2)c2cc(Cl)c(-c3cccc4oc(N)nc34)c(F)c2n1 ?
Response line: > 6.30
